# Tested on: MCF7
# protocol notes: Antiproliferative activity against human MCF7 cells at 10 uM assessed as cell growth inhibition relative to control
# Format: functional
# measurement setup: values are per cent of control
measurement label: growth, % of control at 10 µM
Reply with the number and its unit after it.

[
  {
    "sample smiles": "CCOC(=O)C[C@H]1[C@@H](O[Si](C)(C)C(C)(C)C)[C@H](n2cnc3c(N)ncnc32)O[C@@H]1CO",
    "meas value": "89%"
  }
]

# input for lookup
Q: Given the molecule CCOC(=O)C[C@H]1[C@@H](O[Si](C)(C)C(C)(C)C)[C@H](n2cnc3c(N)ncnc32)O[C@@H]1CNC(=O)NC , what is its reported growth, % of control at 10 µM?
Result: 87%

----------
# Test system: Malme-3M
# protocol notes: Antiproliferative activity against human MALME-3M cells at 10 uM assessed as cell growth inhibition relative to control
# Format: functional
# measurement setup: values are per cent of control
Mark Condition met for growth, % of control at 10 µM under 90%, Condition not met if at or over.

Example entries and their recorded answers appear below.
[
  {
    "sample smiles": "CCOC(=O)C[C@H]1[C@@H](O[Si](C)(C)C(C)(C)C)[C@H](n2cnc3c(N)ncnc32)O[C@@H]1CO",
    "class assignment": "Condition not met"
  },
  {
    "sample smiles": "CCOC(=O)C=C1[C@@H](O[Si](C)(C)C(C)(C)C)[C@H](n2cnc3c(N)ncnc32)O[C@@H]1CNC(=O)NC",
    "class assignment": "Condition not met"
  },
  {
    "sample smiles": "CCOC(=O)C[C@H]1[C@@H](O[Si](C)(C)C(C)(C)C)[C@H](n2cnc3c(NC(=O)Nc4ccccc4)ncnc32)O[C@@H]1COC(=O)NC",
    "class assignment": "Condition met"
  },
  {
    "sample smiles": "CNC(=O)NC[C@H]1O[C@@H](n2cnc3c(NC(=O)Nc4ccccc4)ncnc32)[C@H](O[Si](C)(C)C(C)(C)C)[C@@H]1O[Si](C)(C)C(C)(C)C",
    "class assignment": "Condition met"
  },
  {
    "sample smiles": "CCOC(=O)C[C@H]1[C@@H](O[Si](C)(C)C(C)(C)C)[C@H](n2cnc3c(N)ncnc32)O[C@@H]1COC(=O)NC",
    "class assignment": "Condition not met"
  },
  {
    "sample smiles": "CCOC(=O)C[C@H]1[C@@H](O[Si](C)(C)C(C)(C)C)[C@H](n2cnc3c(NC(=O)Nc4ccccc4)ncnc32)O[C@@H]1CN=[N+]=[N-]",
    "class assignment": "Condition not met"
  }
]

# ---- query compound ----
Q: Strictly below 90% in growth, % of control at 10 µM? CCOC(=O)C[C@H]1[C@@H](O[Si](C)(C)C(C)(C)C)[C@H](n2cnc3c(N)ncnc32)O[C@@H]1CNC(=O)NC
Result: Condition not met

----------
List of growth, % of control at 10 µM values.
# System: UACC-257
# protocol notes: Antiproliferative activity against human UACC257 cells at 10 uM assessed as cell growth inhibition relative to control
# Assay type: functional
# measurement setup: values are per cent of control
Reply with just the number (in %).

Q: // returns reported growth, % of control at 10 µM for input CNC(=O)NC[C@H]1O[C@@H](n2cnc3c(NC(=O)Nc4ccccc4)ncnc32)[C@H](O[Si](C)(C)C(C)(C)C)[C@@H]1O[Si](C)(C)C(C)(C)C
Result: 43

Q: Try the compound CCOC(=O)C[C@H]1[C@@H](O[Si](C)(C)C(C)(C)C)[C@H](n2cnc3c(N)ncnc32)O[C@@H]1CNC(=O)NC
Result: 86

Q: One more compound: CCOC(=O)C[C@H]1[C@@H](O[Si](C)(C)C(C)(C)C)[C@H](n2cnc3c(N)ncnc32)O[C@@H]1CO
Result: 105

Q: Request: CCOC(=O)C[C@H]1[C@@H](O[Si](C)(C)C(C)(C)C)[C@H](n2cnc3c(NC(=O)Nc4ccccc4)ncnc32)O[C@@H]1CN=[N+]=[N-]
Result: 88

Q: // next record CCOC(=O)C[C@H]1[C@@H](O[Si](C)(C)C(C)(C)C)[C@H](n2cnc3c(NC(=O)Nc4ccccc4)ncnc32)O[C@@H]1COC(=O)NC
Result: 60

Q: Now consider CCOC(=O)C=C1[C@@H](O[Si](C)(C)C(C)(C)C)[C@H](n2cnc3c(N)ncnc32)O[C@@H]1CNC(=O)NC and answer again.
Result: 95

Q: // next record CCOC(=O)C[C@H]1[C@@H](O[Si](C)(C)C(C)(C)C)[C@H](n2cnc3c(N)ncnc32)O[C@@H]1COC(=O)NC
Result: 94
